- Test system: U2OS
- EXPERIMENT DESCRIPTION: Multiplex assay against U2OS
- Format: toxicity, cell-based
- TEST CONTEXT: human, 24 h, 10 µM, compound concentration 10 uM, replicate 2
METRIC: Population Fragmented Nuclei (%)

- MOLECULE: "Cc1c(CC(=O)O)c2cccnc2n1Cc1ccc(S(C)(=O)=O)cc1C(F)(F)F [FEVIPIPRANT]"
  UNITS: "%"
  QUANTITATIVE RESULT: 12
- MOLECULE: "Cc1noc(-c2ccc(-c3ccc(CC(=O)O)cc3)cc2)c1NC(=O)O[C@H](C)c1ccccc1Cl"
  UNITS: "%"
  QUANTITATIVE RESULT: 12
- MOLECULE: "COc1ccccc1N1CCN(C[C@@H](C(=O)NC(C)(C)C)c2ccccc2)CC1.Cl.Cl"
  UNITS: "%"
  QUANTITATIVE RESULT: 20
- MOLECULE: "NCCc1cn(S(=O)(=O)c2c(Cl)nc3sccn23)c2ccccc12.O=C(O)C(=O)O"
  UNITS: "%"
  QUANTITATIVE RESULT: 20
- MOLECULE: "C[C@H](N)COC(=O)[C@@H](CCCCN)NC(=O)Cc1c(-c2ccc3ccccc3c2)[nH]c2c1ccc1ccccc12"
  UNITS: "%"
  QUANTITATIVE RESULT: 17

---

- Test system: HEK-293T
- EXPERIMENT DESCRIPTION: Multiplex assay against HEK293T
- Type: toxicity, cell-based
- TEST CONTEXT: human, 24 h, 1 µM, compound concentration 1 uM, replicate 2
METRIC: Population Tubulin-Different-Phenotype (%)

- MOLECULE: "Cc1sc2c(c1C)C(c1ccc(Cl)cc1)=N[C@@H](CC(=O)NCCCCCCCCNC(=O)COc1cccc3c1C(=O)N(C1CCC(=O)NC1=O)C3=O)c1nnc(C)n1-2 (stereo not given in full)"
  UNITS: "%"
  QUANTITATIVE RESULT: 31
- MOLECULE: "COc1cccc2c1c(NS(=O)(=O)c1ccc(Cl)s1)nn2Cc1cccc(CNC(=O)C(C)(C)O)c1"
  UNITS: "%"
  QUANTITATIVE RESULT: 15
- MOLECULE: "O=C1[C@H](Cc2ccc(O)cc2)N2C(=O)CCN(C(=O)NCc3ccccc3)[C@H]2CN1Cc1cccc2ccccc12"
  UNITS: "%"
  QUANTITATIVE RESULT: 24
- MOLECULE: "Br.CS(=O)(=O)Nc1c(O)ccc2c1CCCC2C1=NCCN1 (stereo not given)"
  UNITS: "%"
  QUANTITATIVE RESULT: 17
- MOLECULE: "CN1CCN(c2cc(-c3ccccc3)nc(N)n2)CC1"
  UNITS: "%"
  QUANTITATIVE RESULT: 8
- MOLECULE: "COC[C@@H](c1ccc(C(F)(F)F)cc1)N1CCN(C2(C)CCN(C(=O)c3c(C)ncnc3C)CC2)C[C@@H]1C.O=C(O)/C=C\\C(=O)O [VICRIVIROC MALEATE]"
  UNITS: "%"
  QUANTITATIVE RESULT: 11
- MOLECULE: "Cc1cnc(-c2cc(N3CCN(C(=O)CCS(C)(=O)=O)CC3)ncc2Cl)c(C)c1"
  UNITS: "%"
  QUANTITATIVE RESULT: 13
- MOLECULE: "CCc1cc2cc(NS(=O)(=O)c3ccc(C#N)cc3)ccc2n(CC)c1=O"
  UNITS: "%"
  QUANTITATIVE RESULT: 22
- MOLECULE: "NCCc1cn(S(=O)(=O)c2c(Cl)nc3sccn23)c2ccccc12.O=C(O)C(=O)O"
  UNITS: "%"
  QUANTITATIVE RESULT: 19
- MOLECULE: "CC(C)COc1ccc(CNC(=O)N(Cc2ccc(F)cc2)C2CCN(C)CC2)cc1 [PIMAVANSERIN]"
  UNITS: "%"
  QUANTITATIVE RESULT: 30
